Listed next: entries and their corresponding growth.
System: IGROV1 ovarian
Test: NCI-60 one-dose screen, 48 h (100 = growth as untreated, 0 = no growth, -100 = all killed)
Conditions: 10 µM unless noted
Experimental: Growth inhibition of the IGROV1 human tumor cell line is measured as a screen for anti-cancer activity. Cells are grown in 96 well plates and exposed to the test compound for 48 hours. Compounds are tested at a single concentration, which is 10^-5 M for most compounds. The reported endpoint is percent growth (GI% or GIPRCNT), where numbers from 0 - 100% represent growth inhibition, and numbers from -100% - 0 represent cell death. For example, a value of 40 represents 60% growth inhibition. […]
About 83,000 compounds went through this panel and 20% of them were active in at least one assay; those are over-represented in the sample as a whole. Calls of active or inactive are those of the source. The calls were made as follows: active = growth percent below 10; inactive = the rest.

Consider the reported growth for these compounds:
CCOC(=O)C/C(=N\Nc1cc(=O)[nH]c2ccc(Br)cc12)C(=O)OCC : 82.6% (inactive)
CC(C)c1ccc(Cc2cnc(NC(=O)c3cc(Br)cs3)s2)cc1 : 38% (inactive)
COc1ccc(F)cc1/C=C/C(=O)/C=C(/C=C/c1cc(F)ccc1OC)OB(F)F : 25% (inactive)
CCNCCNc1cc(C2CCCCC2)c(C#N)c2nc3ccccc3n12 : 7.32% (active)
Nc1ncnc2c1c(-c1cccc(Cl)c1)nn2CC(=O)N1CCOCC1 : 99.2% (inactive)

Q) Param item = `COc1cc(/C=C/C(=O)c2ccc(F)cc2)ccc1OCCCCOc1ccc(/C=C/C(=O)c2c(C)nc3ccccc3c2C)cc1OC` ; retrieve measured growth.
A) 101% (inactive)

Q) Param item = `O=C(C[C@]1(O)C(=O)Nc2ccccc21)c1cccc(C(F)(F)F)c1` ; retrieve measured growth.
A) 67.6% (inactive)

Q) Param item = `COc1ccc(/C=N\Nc2nc(SCCC(C)C)nc(-c3ccc(OC)cc3)c2C#N)cc1` ; retrieve measured growth.
A) 34.5% (inactive)
